Assay: Tmax in mouse lung at 5 mg/kg, ip by LC/MS/MS analysis
Format: ADME, organism-based
Property label: Tmax

Molecular string | Observed result
COc1ccc2c(c1)C(=O)N1CCC[C@H]1c1c(C(=O)N(C)C)ncn1-2 | 3 min

* * *

Experiment: Cytotoxicity in human BEAS2B cells after 48 hrs by Cell-titer Glo reagent based assay
Design: species or system BEAS-2B
Details: read-out: LD50
Documented CC50 at 48 h across a set of molecules

Molecular string | CC50 at 48 h
COc1ccc2c(c1)C(=O)N1CCC[C@H]1c1c(C(=O)OC(C)(C)C)ncn1-2 | > 200 µM
[2H]C([2H])([2H])Oc1ccc2c(c1)C(=O)N1CCC[C@H]1c1c(C(=O)OCC(C)C)ncn1-2 | > 200 µM
COc1ccc2c(c1)C(=O)N1CCC[C@H]1c1c(C(=O)NC3CC3)ncn1-2 | > 400 µM
CCNC(=O)c1ncn2c1[C@@H]1CCCN1C(=O)c1cc(OC)ccc1-2 | > 400 µM
[2H]C([2H])([2H])Oc1ccc2c(c1)C(=O)N1CCC[C@H]1c1c(C(=O)NC)ncn1-2 | > 400 µM
